# Experimental System: integrin αvβ3 (Homo sapiens, UniProt P05106+P06756)
# Sequence (P06756 31-992 limits assumed): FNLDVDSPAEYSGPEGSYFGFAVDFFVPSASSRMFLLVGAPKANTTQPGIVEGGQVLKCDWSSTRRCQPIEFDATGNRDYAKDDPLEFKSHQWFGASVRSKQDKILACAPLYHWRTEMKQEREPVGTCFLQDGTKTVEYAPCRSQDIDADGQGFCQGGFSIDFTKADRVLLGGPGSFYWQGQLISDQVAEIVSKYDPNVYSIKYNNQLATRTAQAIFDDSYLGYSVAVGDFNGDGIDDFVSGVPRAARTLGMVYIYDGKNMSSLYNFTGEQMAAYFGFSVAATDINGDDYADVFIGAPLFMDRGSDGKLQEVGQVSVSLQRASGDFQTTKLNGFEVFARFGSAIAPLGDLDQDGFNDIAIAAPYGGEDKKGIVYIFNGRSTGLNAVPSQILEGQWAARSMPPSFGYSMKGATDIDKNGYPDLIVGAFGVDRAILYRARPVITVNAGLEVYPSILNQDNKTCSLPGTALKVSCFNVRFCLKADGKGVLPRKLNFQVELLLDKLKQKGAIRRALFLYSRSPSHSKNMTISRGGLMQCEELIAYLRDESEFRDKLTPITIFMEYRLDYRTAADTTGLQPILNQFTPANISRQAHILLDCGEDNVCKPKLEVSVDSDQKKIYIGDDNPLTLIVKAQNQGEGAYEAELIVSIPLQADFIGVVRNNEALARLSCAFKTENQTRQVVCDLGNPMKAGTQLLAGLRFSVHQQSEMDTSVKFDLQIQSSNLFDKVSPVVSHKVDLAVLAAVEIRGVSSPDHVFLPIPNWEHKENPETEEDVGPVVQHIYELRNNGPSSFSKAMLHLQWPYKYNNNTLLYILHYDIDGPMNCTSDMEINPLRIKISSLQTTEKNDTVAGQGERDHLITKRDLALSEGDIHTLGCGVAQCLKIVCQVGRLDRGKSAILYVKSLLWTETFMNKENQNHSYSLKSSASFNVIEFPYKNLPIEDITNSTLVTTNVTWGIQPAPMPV
# Sequence (P05106 27-718 limits assumed): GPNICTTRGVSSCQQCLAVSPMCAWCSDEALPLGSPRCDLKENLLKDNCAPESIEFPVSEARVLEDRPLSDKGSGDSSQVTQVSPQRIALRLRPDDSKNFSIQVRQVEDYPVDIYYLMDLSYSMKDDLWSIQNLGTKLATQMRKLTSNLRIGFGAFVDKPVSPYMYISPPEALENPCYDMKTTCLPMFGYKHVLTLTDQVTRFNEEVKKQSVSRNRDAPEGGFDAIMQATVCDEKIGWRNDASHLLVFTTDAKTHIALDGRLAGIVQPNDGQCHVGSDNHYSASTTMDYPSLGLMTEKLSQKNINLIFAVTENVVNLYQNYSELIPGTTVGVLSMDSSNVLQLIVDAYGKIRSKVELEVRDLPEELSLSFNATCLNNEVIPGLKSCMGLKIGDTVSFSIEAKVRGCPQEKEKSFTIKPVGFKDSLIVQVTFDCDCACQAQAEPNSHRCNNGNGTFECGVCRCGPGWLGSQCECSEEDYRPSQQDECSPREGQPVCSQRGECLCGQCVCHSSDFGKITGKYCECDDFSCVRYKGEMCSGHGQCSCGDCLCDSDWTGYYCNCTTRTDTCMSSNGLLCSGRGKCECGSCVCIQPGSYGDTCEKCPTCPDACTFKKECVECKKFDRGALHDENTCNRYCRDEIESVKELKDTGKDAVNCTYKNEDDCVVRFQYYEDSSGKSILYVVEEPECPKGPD
# Assay Info: Fluorescence anisotropy, integrin αvβ3
# Assay type: binding
Where no end group is shown, it is not given here.
Measurement Kind: Kd (nM)
Please state the figure in nM; there is no need to write the unit.

(Q) Quick one: give measured Kd for LRRFSTAPFAFIDINDVINF [AXT107]
(A) 1.29

* * *

# Experimental System: integrin α5β1 (Homo sapiens, UniProt P05556+P08648)
# Sequence (P08648 42-995 limits assumed): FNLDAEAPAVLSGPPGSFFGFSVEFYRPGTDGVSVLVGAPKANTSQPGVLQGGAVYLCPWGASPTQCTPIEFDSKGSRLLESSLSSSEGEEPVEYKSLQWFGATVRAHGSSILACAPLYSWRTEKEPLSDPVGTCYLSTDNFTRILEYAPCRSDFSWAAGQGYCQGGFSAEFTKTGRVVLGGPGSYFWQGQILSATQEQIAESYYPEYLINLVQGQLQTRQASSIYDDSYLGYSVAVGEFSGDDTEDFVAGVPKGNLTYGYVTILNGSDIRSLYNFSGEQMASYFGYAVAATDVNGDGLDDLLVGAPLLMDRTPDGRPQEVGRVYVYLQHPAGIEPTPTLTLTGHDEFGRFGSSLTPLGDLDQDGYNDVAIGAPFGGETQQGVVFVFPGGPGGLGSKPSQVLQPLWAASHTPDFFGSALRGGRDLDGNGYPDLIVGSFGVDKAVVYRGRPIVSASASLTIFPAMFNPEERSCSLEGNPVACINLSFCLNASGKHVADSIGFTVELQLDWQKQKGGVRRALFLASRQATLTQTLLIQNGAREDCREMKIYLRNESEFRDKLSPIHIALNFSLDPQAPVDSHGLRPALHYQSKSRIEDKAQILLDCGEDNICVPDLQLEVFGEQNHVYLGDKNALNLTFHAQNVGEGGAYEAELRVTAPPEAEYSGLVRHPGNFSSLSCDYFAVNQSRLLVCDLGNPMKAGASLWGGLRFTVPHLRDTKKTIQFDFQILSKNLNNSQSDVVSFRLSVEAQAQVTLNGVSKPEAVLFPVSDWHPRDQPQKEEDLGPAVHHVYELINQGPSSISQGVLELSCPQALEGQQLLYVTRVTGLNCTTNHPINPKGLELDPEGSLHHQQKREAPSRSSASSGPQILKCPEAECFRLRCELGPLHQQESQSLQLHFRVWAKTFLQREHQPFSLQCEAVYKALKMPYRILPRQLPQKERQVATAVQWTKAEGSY
# Sequence (P05556 21-728 limits assumed): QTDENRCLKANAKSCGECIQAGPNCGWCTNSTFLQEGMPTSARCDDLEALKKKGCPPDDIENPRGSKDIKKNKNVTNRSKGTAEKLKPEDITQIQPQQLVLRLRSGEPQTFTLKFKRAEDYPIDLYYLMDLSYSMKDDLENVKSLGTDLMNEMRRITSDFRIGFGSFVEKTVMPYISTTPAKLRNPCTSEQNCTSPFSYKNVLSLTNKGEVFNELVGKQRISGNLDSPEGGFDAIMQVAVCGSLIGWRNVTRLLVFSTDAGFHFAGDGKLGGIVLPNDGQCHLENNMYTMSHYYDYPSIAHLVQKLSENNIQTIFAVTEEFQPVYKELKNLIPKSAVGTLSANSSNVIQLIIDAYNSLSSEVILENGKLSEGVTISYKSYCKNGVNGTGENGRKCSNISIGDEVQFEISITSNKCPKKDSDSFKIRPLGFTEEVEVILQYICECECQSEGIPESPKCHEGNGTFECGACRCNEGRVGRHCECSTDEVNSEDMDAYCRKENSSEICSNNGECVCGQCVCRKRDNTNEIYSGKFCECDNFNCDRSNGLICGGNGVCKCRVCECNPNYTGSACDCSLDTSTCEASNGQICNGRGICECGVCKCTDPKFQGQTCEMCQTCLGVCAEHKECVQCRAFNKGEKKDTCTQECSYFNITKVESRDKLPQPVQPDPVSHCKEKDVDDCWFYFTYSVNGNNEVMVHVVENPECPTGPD
# Assay Info: Fluorescence anisotropy, integrin α5β1
# Assay type: binding
Where no end group is shown, it is not given here.
Measurement Kind: Kd
Your answer should be a number followed by the unit of measure.

(Q) Specify measured Kd for LRRFSTAPFAFIDINDVINF [AXT107] .
(A) 2.21 nM
